target: purified human recombinant DPP-IV enzyme (Homo sapiens); assay: In vitro DPP-IV activity assay (Gly-Pro-AMC fluorescence); details: tested 1–1000 µM
Sequence (P27487 whole entry): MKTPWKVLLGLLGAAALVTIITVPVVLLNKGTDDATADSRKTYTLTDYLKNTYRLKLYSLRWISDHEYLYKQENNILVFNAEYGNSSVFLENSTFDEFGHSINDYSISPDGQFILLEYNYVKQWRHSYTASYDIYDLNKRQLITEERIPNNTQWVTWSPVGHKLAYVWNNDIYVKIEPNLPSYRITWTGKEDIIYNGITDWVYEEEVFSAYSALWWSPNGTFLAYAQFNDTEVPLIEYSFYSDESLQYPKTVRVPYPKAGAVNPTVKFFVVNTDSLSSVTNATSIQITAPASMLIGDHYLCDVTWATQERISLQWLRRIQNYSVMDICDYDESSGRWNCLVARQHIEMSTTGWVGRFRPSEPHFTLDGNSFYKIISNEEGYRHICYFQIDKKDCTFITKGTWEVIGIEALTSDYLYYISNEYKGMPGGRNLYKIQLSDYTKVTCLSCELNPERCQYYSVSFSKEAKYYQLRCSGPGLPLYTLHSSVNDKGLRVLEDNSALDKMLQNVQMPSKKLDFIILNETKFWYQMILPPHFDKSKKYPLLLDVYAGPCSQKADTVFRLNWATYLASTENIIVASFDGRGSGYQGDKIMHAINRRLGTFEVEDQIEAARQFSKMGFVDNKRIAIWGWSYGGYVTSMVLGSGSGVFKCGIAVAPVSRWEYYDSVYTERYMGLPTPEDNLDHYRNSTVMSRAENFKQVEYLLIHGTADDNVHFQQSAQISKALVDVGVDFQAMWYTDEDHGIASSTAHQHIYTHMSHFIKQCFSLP

molecule: OCCc1ccc(O)cc1
scale.unit: µM
IC50: 1110
//
molecule: OCCc1ccc(O)c(O)c1 [hydroxytyrosol]
scale.unit: µM
IC50: 742
//
molecule: C/C=C1/[C@H](O[C@@H]2O[C@H](CO)[C@@H](O)[C@H](O)[C@H]2O)OC=C(C(=O)OC)[C@H]1CC(=O)OCCc1ccc(O)c(O)c1
scale.unit: µM
IC50: 472

Ref: paper PMC8301156
